Quick reference for z-score among some compounds
# experimentalDetails: adipocyte viability effects, profiling panel, cell-based, 3T3-L1 adipocytes, calcein-AM fluorescence, 48 h, basal (AID 1163); note: test concentration not given here
# particulars: 3T3-L1 adipocytes viability, higher = more signal
The answer should be a number; do not append a unit.

A selection of reference data follows.
compound	reading
C=CCC(OC(C)=O)[C@@H]1[C@@H](N(Cc2cccc3ccccc23)C(=O)c2ccc(C)cc2)c2cc(OCCCO)ccc2N1C(=O)Cc1ccc2ccccc2c1 (some centres undefined)	1.05
CC(C)c1ccc(NN2C(C(O)C3CCCCC3)C=CC3C(=O)N(c4ccccc4)C(=O)C32)cc1 (centres undefined)	-1.19
C=C[C@H](C)[C@@H](OC(=O)Nc1ccc(SC)cc1)c1ccc(OCCO)cc1	-0.0489

Consider the additional compound presented here.
Noted for `CCCNC(=O)[C@@]1(Sc2ccc(C)cc2)CC(=O)N(Cc2cc(C(F)(F)F)cc(C(F)(F)F)c2)[C@@H]1c1ccc(CO)cc1` : its z-score reads 1.2

Values from PubChem BioAssay
